From: patent US9221795B2

- Test target: PI3Kδ (Homo sapiens (Human))
- Sequence (O00329 whole entry, canonical isoform): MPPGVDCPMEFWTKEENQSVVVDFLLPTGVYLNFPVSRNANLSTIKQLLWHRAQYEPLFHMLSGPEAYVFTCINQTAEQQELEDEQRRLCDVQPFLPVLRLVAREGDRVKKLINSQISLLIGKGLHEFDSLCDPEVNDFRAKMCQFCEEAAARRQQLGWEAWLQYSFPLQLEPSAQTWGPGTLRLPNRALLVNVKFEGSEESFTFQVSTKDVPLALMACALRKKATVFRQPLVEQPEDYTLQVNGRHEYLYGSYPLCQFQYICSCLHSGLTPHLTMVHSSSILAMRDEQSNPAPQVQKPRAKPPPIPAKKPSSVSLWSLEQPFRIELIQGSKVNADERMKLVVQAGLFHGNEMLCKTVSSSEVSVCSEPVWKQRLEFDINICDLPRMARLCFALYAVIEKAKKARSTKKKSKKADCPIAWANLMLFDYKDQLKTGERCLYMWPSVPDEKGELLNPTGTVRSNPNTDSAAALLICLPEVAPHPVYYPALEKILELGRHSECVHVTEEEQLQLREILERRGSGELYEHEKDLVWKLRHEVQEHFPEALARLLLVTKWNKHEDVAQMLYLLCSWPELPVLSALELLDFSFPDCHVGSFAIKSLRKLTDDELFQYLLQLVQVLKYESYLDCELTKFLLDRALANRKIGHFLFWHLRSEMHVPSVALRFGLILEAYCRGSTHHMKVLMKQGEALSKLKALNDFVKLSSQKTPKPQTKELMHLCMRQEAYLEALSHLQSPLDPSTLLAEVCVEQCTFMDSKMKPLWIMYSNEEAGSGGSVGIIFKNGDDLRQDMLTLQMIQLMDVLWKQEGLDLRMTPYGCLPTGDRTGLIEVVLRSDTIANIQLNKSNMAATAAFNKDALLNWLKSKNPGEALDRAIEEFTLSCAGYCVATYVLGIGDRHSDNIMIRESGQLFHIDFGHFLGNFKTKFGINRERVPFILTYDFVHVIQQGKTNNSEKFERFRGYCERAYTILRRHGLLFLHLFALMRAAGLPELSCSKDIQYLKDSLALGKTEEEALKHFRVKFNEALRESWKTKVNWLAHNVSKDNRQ
- Sequence (P27986 whole entry partner, canonical isoform): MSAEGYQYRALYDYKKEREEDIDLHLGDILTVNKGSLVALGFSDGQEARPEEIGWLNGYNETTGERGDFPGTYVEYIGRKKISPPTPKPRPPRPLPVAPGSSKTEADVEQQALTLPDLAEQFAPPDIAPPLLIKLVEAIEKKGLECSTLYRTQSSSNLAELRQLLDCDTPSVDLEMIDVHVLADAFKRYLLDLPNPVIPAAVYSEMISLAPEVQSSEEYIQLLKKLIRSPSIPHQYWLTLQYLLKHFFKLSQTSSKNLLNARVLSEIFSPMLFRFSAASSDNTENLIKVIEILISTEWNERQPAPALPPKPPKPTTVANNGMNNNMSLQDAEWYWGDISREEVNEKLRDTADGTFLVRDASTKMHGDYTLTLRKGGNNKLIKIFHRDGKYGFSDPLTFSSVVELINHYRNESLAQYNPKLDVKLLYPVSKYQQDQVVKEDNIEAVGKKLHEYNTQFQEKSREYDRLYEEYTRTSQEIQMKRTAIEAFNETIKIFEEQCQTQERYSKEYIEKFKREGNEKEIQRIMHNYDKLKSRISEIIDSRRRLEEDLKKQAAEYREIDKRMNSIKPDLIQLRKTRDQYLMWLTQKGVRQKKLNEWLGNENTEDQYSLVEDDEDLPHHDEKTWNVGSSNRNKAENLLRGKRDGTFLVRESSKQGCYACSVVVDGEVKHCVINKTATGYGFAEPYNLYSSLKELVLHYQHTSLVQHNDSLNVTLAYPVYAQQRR
- Assay text: Enzymatic activity of PI3K isoforms, TR-FRET assay (PI3Kδ)
- Run conditions: 2× Km ATP, geometric mean if more than one value
Endpoint: pIC50
For clarity, pIC50 is expressed as the negative log10 of concentration in mol/L.

Provide only the value of recorded pIC50 for N#Cc1c(N)nc(N)nc1N[C@H](c1nc2c(F)ccc(Cl)c2c(=O)n1-c1cncc(F)c1)C1CC1 [Compound 33] 8.70

Tell me its pIC50 given N#Cc1c(N)nc(N)nc1N[C@H](c1nc2ccc(F)c(Cl)c2c(=O)n1-c1cccnc1)C1CC1 [Compound 37] as the entry. 8.30

Consider the molecule N#Cc1c(N)nc(N)nc1N[C@H](c1nc2cccc(Cl)c2c(=O)n1-c1cncc(F)c1)C1CC1 [Compound 21] and give its recorded pIC50. 8.70

Give pIC50 for the following molecule: Cc1cncc(-n2c([C@@H](Nc3nc(N)nc(N)c3C#N)C3CC3)nc3cccc(Cl)c3c2=O)c1 [Compound 17] 8.40

Determine from records and report pIC50 for C[C@H](Nc1nc(N)nc(N)c1C#N)c1nc2cccc(Cl)c2c(=O)n1-c1cncc(C(F)F)c1 [Compound 15] 8.40

Please look at this molecule and report its pIC50: Cc1ccncc1-n1c([C@H](C)Nc2nc(N)nc(N)c2C#N)nc2cccc(C(F)(F)F)c2c1=O (atropisomer, axis not shown) [Compound 79] 8.70

Identify measured pIC50 associated with C[C@H](Nc1nc(N)nc(N)c1C#N)c1nc2cccc(Cl)c2c(=O)n1-c1cncc(C2CC2)c1 [Compound 19] 8.30

Write down pIC50 measured for item Cc1cc(N)ncc1-n1c([C@H](C)Nc2nc(N)nc(N)c2C#N)nc2cccc(Cl)c2c1=O (atropisomer, axis not shown) [Compound 93] 8.70

Dear colleague, please send me the reported pIC50 for C[C@H](Nc1nc(N)nc(N)c1C#N)c1nc2ccc(F)c(Cl)c2c(=O)n1-c1ccc(N)nc1 [Compound 101] when you can. 8.10

Give recorded pIC50. N#Cc1c(N)nc(N)nc1N[C@@H](CC1CC1)c1nc2cccc(Cl)c2c(=O)n1-c1cccnc1 [Compound 4] 8.30

Provide measured pIC50 value, entry: Cc1cncc(-n2c([C@H](C)Nc3nc(N)nc(N)c3C#N)nc3cccc(Cl)c3c2=O)c1 [Compound 16] 9.00

Determine from records and report pIC50 for C[C@H](Nc1nc(N)nc(N)c1C#N)c1nc2c(Cl)cc(F)cc2c(=O)n1-c1ccc(N)nc1 [Compound 82] 8.30

Report measured pIC50; entry is C[C@H](Nc1nc(N)nc(N)c1C#N)c1nc2c(Cl)ccc(Cl)c2c(=O)n1-c1ccc(N)nc1 [Compound 84] 9.30

Specify pIC50 for C[C@H](Nc1nc(N)nc(N)c1C#N)c1nc2cccc(C#N)c2c(=O)n1-c1cccnc1 [Compound 10] and stop. 8.05

Assign pIC50 to the following record: C[C@H](Nc1nc(N)nc(N)c1C#N)c1nc2c(Cl)ccc(Cl)c2c(=O)n1-c1cccnc1 [Compound 23] 9.15

----------
- Test target: PI3Kδ (Homo sapiens (Human))
- Assay text: Enzymatic activity of PI3K isoforms, TR-FRET assay (PI3Kδ)
- Run conditions: 2× Km ATP, geometric mean if more than one value
Endpoint: pIC50
Interpret pIC50 as the negative base-10 log of the concentration measured in mol/L.

Determine from records and report pIC50 for "C[C@H](Nc1nc(N)nc(N)c1C#N)c1nc2cccc(Cl)c2c(=O)n1-c1cncc(F)c1" 8.70

Tell us which pIC50 value is on record for "N#Cc1c(N)nc(N)nc1N[C@H](c1nc2c(Cl)ccc(Cl)c2c(=O)n1-c1cccnc1)C1CC1" 9.22

Give reported pIC50 value for Cc1c(F)cncc1-n1c([C@H](C)Nc2nc(N)nc(N)c2C#N)nc2cccc(Cl)c2c1=O (atropisomer, axis not shown) [Compound 47] 9.30

Please give the documented pIC50 of "C[C@H](Nc1nc(N)nc(N)c1Cl)c1nc2cccc(F)c2c(=O)n1-c1cccnc1" 7.20

Identify pIC50 associated with the compound Cc1ncccc1-n1c([C@H](C)Nc2nc(N)nc(N)c2C#N)nc2cccc(Cl)c2c1=O (atropisomer, axis not shown) [Compound 38] 7.89

Give me measured pIC50, please, for this compound: "C[C@H](Nc1nc(N)nc(N)c1Cl)c1nc2cccc(Cl)c2c(=O)n1-c1cncc(F)c1" 8.15

Entry "Cc1cncc(-n2c([C@H](C)Nc3nc(N)nc(N)c3C#N)nc3c(F)ccc(Cl)c3c2=O)c1" needs its pIC50 filled in; supply it. 8.70

Respond only with pIC50 recorded for Cc1cc(N)ncc1-n1c([C@H](C)Nc2nc(N)nc(N)c2C#N)nc2cccc(Cl)c2c1=O (atropisomer, axis not shown) [Compound 94] 9.30

Provide measured pIC50 value, entry: "Cc1cccc2nc([C@H](C)Nc3nc(N)nc(N)c3C#N)n(-c3cccnc3)c(=O)c12" 9.40

Please indicate pIC50 recorded for "C[C@H](Nc1nc(N)nc(N)c1C#N)c1nc2c(Cl)ccc(Cl)c2c(=O)n1-c1cncc(F)c1" 9.00

Fill in reported pIC50 for this entry: "CCC[C@H](Nc1nc(N)nc(N)c1Cl)c1nc2cccc(Cl)c2c(=O)n1-c1ccc(N)nc1" 7.82

Provide one value: measured pIC50 of "CCC[C@H](Nc1nc(N)nc(N)c1C#N)c1nc2cccc(Cl)c2c(=O)n1-c1ccc(N)nc1" 9.00

Could you please provide reported pIC50 for "N#Cc1c(N)nc(N)nc1N[C@H](c1nc2cccc(Cl)c2c(=O)n1-c1ccc(N)nc1)C1CC1" ? Thanks! 9.22

Please supply the value of reported pIC50 for the item Cc1ncc(F)cc1-n1c([C@H](C)Nc2nc(N)nc(N)c2C#N)nc2cccc(Cl)c2c1=O (atropisomer, axis not shown) [Compound 44] 7.47
